valueKind: melting point

Illustrative cases are given below, each with its answer.
# compound, melting point
rows = [
    ("CC12CC3CC(C)(C1)CC(C(=O)NCCc1cccs1)(C3)C2 [STX1672]", "131 to 132 °C"),
    ("O=S(=O)(NC12CC3CC(CC(C3)C1)C2)c1ccc(-c2ccccc2)cc1 [STX1344]", "205 to 205.5 °C"),
    ("COc1cc2c(cc1OC)CN(C(=O)CC13CC4CC(CC(C4)C1)C3)CC2", "165 to 167 °C"),
    ("O=C(NCCc1cccs1)C12CC3CC(CC(C3)C1)C2 [STX1375]", "123 to 126 °C"),
    ("CC(C)(C)C(=O)NCCc1cccs1 [STX1674]", "79 to 80 °C"),
    ("CNC(=O)c1ccc(CN(C)C(=O)C23CC4CC(CC(C4)C2)C3)s1", "211 to 211.5 °C"),
    ("CC(C(=O)NCc1cccs1)(c1ccccc1)c1ccccc1 [STX1640]", "90 to 91 °C"),
    ("O=C(N1CCN(Cc2ccc(Cl)cc2)CC1)C12CC3CC(CC(C3)C1)C2", "141.5 to 143 °C"),
]

Answer for every listed entry: what is its melting point? The entries follow.
1. CN(Cc1cccnc1)C(=O)C12CC3CC(CC(C3)C1)C2 [STX2135]
2. Cc1cccc(CN(C)C(=O)C23CC4CC(CC(C4)C2)C3)n1 [STX2134]

Ans.
57 to 59.5 °C
76 to 77.5 °C

Answer for every listed entry: what is its melting point? The entries follow.
1. Cc1c(Cl)cccc1S(=O)(=O)NC12CC3CC(CC(C3)C1)C2 [STX1343]
2. O=C(NCCc1cccs1)C12CC3CC(CC1C3)C2 [STX1656]
3. O=C(N(Cc1cccs1)CC1CCCCC1)C12CC3CC(CC(C3)C1)C2
4. CN(Cc1cc(Br)cs1)C(=O)CC12CC3CC(CC(C3)C1)C2 [STX2396]
5. Cc1csc(CN(C)C(=O)C23CC4CC(CC(C4)C2)C3)c1 [STX2254]

Ans.
1: 197.5 to 198 °C; 2: 113 to 114 °C; 3: 112 to 115.5 °C; 4: 86 to 88.5 °C; 5: 87 to 88 °C
